# protocolConditions: in methanol, 288.15 K
assayEndpoint: solubility (mole fraction)

                            molecularstring  number
0  CN[C@@H]1[C@H](O)[C@H](NC)[C@H]2O[C@@]3(O)C(=O)C[C@@H](C)O[C@H]3O[C@@H]2[C@H]1O.Cl.Cl.O.O.O.O.O  0.0185

----------
# protocolConditions: in n-propanol, 283.15 K
assayEndpoint: solubility (mole fraction)

In [3]: df
Out[3]:
                            molecularstring   result
0  CN[C@@H]1[C@H](O)[C@H](NC)[C@H]2O[C@@]3(O)C(=O)C[C@@H](C)O[C@H]3O[C@@H]2[C@H]1O.Cl.Cl.O.O.O.O.O  0.00125

----------
# protocolConditions: in ethanol, 303.15 K
assayEndpoint: solubility (mole fraction)

>>> df
                            molecularstring   number
0  CN[C@@H]1[C@H](O)[C@H](NC)[C@H]2O[C@@]3(O)C(=O)C[C@@H](C)O[C@H]3O[C@@H]2[C@H]1O.Cl.Cl.O.O.O.O.O  0.00629

----------
# protocolConditions: in n-propanol, 298.15 K
assayEndpoint: solubility (mole fraction)

>>> print(df.to_string())
                            molecularstring  number
0  CN[C@@H]1[C@H](O)[C@H](NC)[C@H]2O[C@@]3(O)C(=O)C[C@@H](C)O[C@H]3O[C@@H]2[C@H]1O.Cl.Cl.O.O.O.O.O  0.0027

----------
# protocolConditions: in isopropanol, 288.15 K
assayEndpoint: solubility (mole fraction)

>>> print(df.to_string())
                            molecularstring   number
0  CN[C@@H]1[C@H](O)[C@H](NC)[C@H]2O[C@@]3(O)C(=O)C[C@@H](C)O[C@H]3O[C@@H]2[C@H]1O.Cl.Cl.O.O.O.O.O  0.00051

----------
# protocolConditions: in isopropanol, 298.15 K
assayEndpoint: solubility (mole fraction)

>>> print(df.to_string())
                            molecularstring               assayendpoint   number
0  CN[C@@H]1[C@H](O)[C@H](NC)[C@H]2O[C@@]3(O)C(=O)C[C@@H](C)O[C@H]3O[C@@H]2[C@H]1O.Cl.Cl.O.O.O.O.O  solubility (mole fraction)  0.00074

----------
# protocolConditions: in ethanol, 278.15 K
assayEndpoint: solubility (mole fraction)

                            molecularstring   result
0  CN[C@@H]1[C@H](O)[C@H](NC)[C@H]2O[C@@]3(O)C(=O)C[C@@H](C)O[C@H]3O[C@@H]2[C@H]1O.Cl.Cl.O.O.O.O.O  0.00342

----------
# protocolConditions: in isopropanol, 293.15 K
assayEndpoint: solubility (mole fraction)

>>> df
                            molecularstring   number
0  CN[C@@H]1[C@H](O)[C@H](NC)[C@H]2O[C@@]3(O)C(=O)C[C@@H](C)O[C@H]3O[C@@H]2[C@H]1O.Cl.Cl.O.O.O.O.O  0.00066

----------
# protocolConditions: in methanol, 318.15 K
assayEndpoint: solubility (mole fraction)

In [3]: df
Out[3]:
                            molecularstring  number
0  CN[C@@H]1[C@H](O)[C@H](NC)[C@H]2O[C@@]3(O)C(=O)C[C@@H](C)O[C@H]3O[C@@H]2[C@H]1O.Cl.Cl.O.O.O.O.O  0.0629
